Target: UniProt:Q12809
Sequence (Q12809 whole entry): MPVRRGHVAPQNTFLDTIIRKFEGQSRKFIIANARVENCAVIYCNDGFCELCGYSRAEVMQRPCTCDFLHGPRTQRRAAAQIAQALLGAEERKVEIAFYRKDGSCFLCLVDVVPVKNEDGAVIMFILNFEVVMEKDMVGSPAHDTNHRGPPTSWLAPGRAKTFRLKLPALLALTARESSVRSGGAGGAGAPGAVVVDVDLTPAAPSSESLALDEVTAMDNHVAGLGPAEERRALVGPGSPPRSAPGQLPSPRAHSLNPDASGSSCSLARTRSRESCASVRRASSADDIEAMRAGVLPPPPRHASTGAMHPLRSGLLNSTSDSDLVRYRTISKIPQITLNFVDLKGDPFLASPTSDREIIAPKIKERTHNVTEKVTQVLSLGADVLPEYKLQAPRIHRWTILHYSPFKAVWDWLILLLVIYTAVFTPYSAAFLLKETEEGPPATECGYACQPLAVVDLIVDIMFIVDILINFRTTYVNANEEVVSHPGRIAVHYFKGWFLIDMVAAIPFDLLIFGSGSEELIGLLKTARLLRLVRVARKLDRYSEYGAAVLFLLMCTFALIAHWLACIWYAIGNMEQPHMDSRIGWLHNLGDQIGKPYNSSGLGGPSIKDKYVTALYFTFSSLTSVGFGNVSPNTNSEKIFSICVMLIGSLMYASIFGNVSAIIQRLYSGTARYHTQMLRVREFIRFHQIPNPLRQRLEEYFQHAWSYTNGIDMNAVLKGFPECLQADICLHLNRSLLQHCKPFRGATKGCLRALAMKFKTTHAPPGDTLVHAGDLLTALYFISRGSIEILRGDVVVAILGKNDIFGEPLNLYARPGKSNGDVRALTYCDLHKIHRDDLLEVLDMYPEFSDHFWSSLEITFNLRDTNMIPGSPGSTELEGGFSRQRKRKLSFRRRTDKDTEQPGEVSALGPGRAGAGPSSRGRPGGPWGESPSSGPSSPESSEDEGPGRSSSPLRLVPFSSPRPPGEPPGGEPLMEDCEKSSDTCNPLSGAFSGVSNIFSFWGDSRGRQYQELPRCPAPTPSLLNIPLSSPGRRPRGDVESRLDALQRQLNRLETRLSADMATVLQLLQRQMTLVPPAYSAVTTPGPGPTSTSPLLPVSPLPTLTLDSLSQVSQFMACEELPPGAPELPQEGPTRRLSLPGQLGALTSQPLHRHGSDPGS
I'd be grateful if you could share measured IC50 for these entries.
Reply with just the number (in nM).

Please report the recorded IC50 for CN1CCC(N(Cc2ccc(F)cn2)C(=O)NCc2ccc3c(ccn3C)c2)CC1 [Compound 12] .
2220

Then this compound: CN1CCC(N(Cc2ccc(F)cn2)C(=O)NCc2ccc(OCC(F)(F)F)nc2)C2(CC2)C1 (single isomer, unassigned) [Compound 50A]
2200

Okay, and CN1CCC(N(Cc2ccc(F)cn2)C(=O)NCc2ccc3c(c2)C=CC3)CC1 [Compound 59] ?
1480

Please give the result for CN1CCC(N(Cc2ccc(F)cn2)C(=O)NCc2ccc3ncccc3c2)CC1 [Compound 10] too.
3860
